Test system: COLO 205 colon
method: NCI tumour cell line growth inhibition, 48 h
test_readout: TGI (µM)
Provide only the numeric value, understood in µM.

molecule: COc1cc2c(/C=C3/C(=O)Nc4ccc(Cl)cc43)c(Cl)n(Cc3ccccc3)c2cc1C
scale_unit: µM
TGI: 6.36

molecule: CCN(CC)c1ccc(/C=C/c2cc(C)c3ccccc3n2)cc1
scale_unit: µM
TGI: 5.23

molecule: COC12C=CC(CC1)c1c(O)ccc(O)c12 (stereo unspecified)
scale_unit: µM
TGI: 57

molecule: CCC[CH2][Sn]([CH2]CCC)([O]C(C)=O)[O]C(C)=O
scale_unit: µM
TGI: 4.29

molecule: COc1ccc(Cn2nc(-c3cc(OC)c(OC)c(OC)c3)c3c2CCc2cnoc2-3)cc1OC
scale_unit: µM
TGI: 23.4

Query block: Please report TGI for the following molecule: COC(=O)[C@@H]1CSC(=S)N1C(=O)C[C@H]1CC=CC[C@H]1CC(=O)Sc1ccccc1
Result block: 37.1

Query block: Entry O=C(CCN1CCCC1)Nc1ccc2c(NCc3ccc(F)cc3)c3ccccc3nc2c1 needs its TGI filled in; supply it.
Result block: 1.65
